Target: N-terminal CRD of hGalectin-4 (Gal-4N) (Homo sapiens)
Construct: N-terminal CRD of hGalectin-4 (amino acids 1–150, including an additional C-terminus His-Tag); His-Tag (C, cleaved yes); made in house; host or cells: E. coli BL21 (pET29b)
Sequence (P56470 1-150): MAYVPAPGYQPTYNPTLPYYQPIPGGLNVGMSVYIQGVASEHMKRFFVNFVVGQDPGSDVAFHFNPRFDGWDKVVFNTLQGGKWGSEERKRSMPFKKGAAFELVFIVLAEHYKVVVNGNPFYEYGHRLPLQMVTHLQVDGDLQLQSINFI
Test: Isothermal titration calorimetry (ITC)
Format: binding
Let's look at some compounds and their measured ΔH (kcal mol^–1) (ITC).
Numbers only; they are read as kcal mol^–1.

compound	units	ΔH (kcal mol^–1) (ITC)
CC(=O)NC1C(OC2C(O)C(CO)OC(OC3C(CO)OC(O)C(O)C3O)C2OC2OC(C)C(O)C(O)C2O)OC(CO)C(O)C1O (stereo not drawn) [A type-6 (tetra)]	kcal mol^–1	−8.5
CC(=O)NC1C(O)OC(CO)C(OC2OC(CO)C(O)C(OC3OC(CO)C(O)C(O)C3O)C2OC2OC(C)C(O)C(O)C2O)C1O (stereo not drawn) [B type-2 (tetra)]	kcal mol^–1	−9.3
CC(=O)N[C@@H]1[C@@H](O[C@@H]2O[C@H](CO)[C@H](O)[C@H](O[C@H]3O[C@H](CO)[C@H](O)[C@H](O)[C@H]3NC(C)=O)[C@H]2O[C@@H]2O[C@@H](C)[C@@H](O)[C@@H](O)[C@@H]2O)[C@H](O)[C@@H](CO)O[C@H]1O [A type-1 (tetra)]	kcal mol^–1	−5.9

// query Query for N-terminal CRD of hGalectin-4 (Gal-4N) (Homo sapiens): what ΔH (kcal mol^–1) (ITC) does the record show for CC1OC(OC2C(OC3C(CO)OC(O)C(O)C3O)OC(CO)C(O)C2OC2OC(CO)C(O)C(O)C2O)C(O)C(O)C1O (stereo not drawn) [B type-6 (tetra)] ?
// result −12.3

// query Query for N-terminal CRD of hGalectin-4 (Gal-4N) (Homo sapiens): what ΔH (kcal mol^–1) (ITC) does the record show for CC(=O)NC1C(O)OC(CO)C(OC2OC(CO)C(O)C(OC3OC(CO)C(O)C(O)C3NC(C)=O)C2OC2OC(C)C(O)C(O)C2O)C1O (stereo not drawn) [A type−2 (tetra)] ?
// result −6.9

// query Query for N-terminal CRD of hGalectin-4 (Gal-4N) (Homo sapiens): what ΔH (kcal mol^–1) (ITC) does the record show for CC(=O)N[C@@H]1[C@@H](O[C@@H]2O[C@H](CO)[C@H](O)[C@H](O[C@H]3O[C@H](CO)[C@H](O)[C@H](O)[C@H]3O)[C@H]2O[C@@H]2O[C@@H](C)[C@@H](O)[C@@H](O)[C@@H]2O)[C@H](O)[C@@H](CO)O[C@H]1O [B type-1 (tetra)] ?
// result −7.7

====

target: N-terminal CRD of hGalectin-4 (Gal-4N) (Homo sapiens, UniProt P56470); construct: N-terminal CRD of hGalectin-4 (amino acids 1–150, including an additional C-terminus His-Tag); His-Tag (C, cleaved yes); made in house; host or cells: E. coli BL21 (pET29b); assay: 1H-15N HSQC NMR-based titrations (chemical shift perturbation) of 15N-labeled Gal-4N; type: binding; settings: HSQC NMR-based titration, 50 μM 15N-labeled lectin, 298 K; read-out: KD (μM) (NMR)
endpoint_name: Kd (µM)
Numbers only; they are read as µM.

Answered cases to consult:
compound	Kd [µM]
CC1OC(OC2C(OC3C(CO)OC(O)C(O)C3O)OC(CO)C(O)C2OC2OC(CO)C(O)C(O)C2O)C(O)C(O)C1O (stereo not drawn)	60
CC(=O)N[C@@H]1[C@@H](O[C@@H]2O[C@H](CO)[C@H](O)[C@H](O[C@H]3O[C@H](CO)[C@H](O)[C@H](O)[C@H]3O)[C@H]2O[C@@H]2O[C@@H](C)[C@@H](O)[C@@H](O)[C@@H]2O)[C@H](O)[C@@H](CO)O[C@H]1O	200

Next, consider the following compound.
// query I have this compound here, CC(=O)NC1C(O)OC(CO)C(OC2OC(CO)C(O)C(OC3OC(CO)C(O)C(O)C3O)C2OC2OC(C)C(O)C(O)C2O)C1O (stereo not drawn) , and I need its recorded Kd.
// result 190

====

target: N-terminal CRD of hGalectin-4 (Gal-4N) (Homo sapiens, UniProt P56470); construct: N-terminal CRD of hGalectin-4 (amino acids 1–150, including an additional C-terminus His-Tag); His-Tag (C, cleaved yes); made in house; host or cells: E. coli BL21 (pET29b); test: 1H Saturation Transfer Difference (STD) NMR epitope mapping; format: binding; conditions: 1H-residue H4Galβ
# note: exactly 60% is not below, so it is N; use Y for STD% strictly under it

Here are 3 compounds together with their reported answers.
compound	category
CC(=O)NC1C(O)OC(CO)C(OC2OC(CO)C(O)C(OC3OC(CO)C(O)C(O)C3O)C2OC2OC(C)C(O)C(O)C2O)C1O (stereo not drawn) [B type-2 (tetra)]	Y
CC(=O)N[C@@H]1[C@@H](O[C@@H]2O[C@H](CO)[C@H](O)[C@H](O[C@H]3O[C@H](CO)[C@H](O)[C@H](O)[C@H]3O)[C@H]2O[C@@H]2O[C@@H](C)[C@@H](O)[C@@H](O)[C@@H]2O)[C@H](O)[C@@H](CO)O[C@H]1O [B type-1 (tetra)]	N
CC(=O)N[C@H]1[C@@H](O[C@H]2[C@@H](O)[C@@H](CO)O[C@@H](O[C@H]3[C@@H](O)[C@@H](CO)O[C@@H](O[C@@H]4[C@@H](O)[C@H](O)O[C@H](CO)[C@@H]4O)[C@@H]3NC(C)=O)[C@@H]2O[C@@H]2O[C@@H](C)[C@@H](O)[C@@H](O)[C@@H]2O)O[C@H](CO)[C@H](O)[C@@H]1O [A type-4 (penta)]	N

// query Identify whether the compound CC1OC(OC2C(OC3C(CO)OC(O)C(O)C3O)OC(CO)C(O)C2OC2OC(CO)C(O)C(O)C2O)C(O)C(O)C1O (stereo not drawn) [B type-6 (tetra)] records STD% below 60%.
// result N

// query Identify whether the compound CC(=O)NC1C(OC2C(O)C(O)OC(CO)C2O)OC(CO)C(O)C1OC1OC(CO)C(O)C(OC2OC(CO)C(O)C(O)C2O)C1OC1OC(C)C(O)C(O)C1O (stereo not drawn) [B type-4 (penta)] records STD% below 60%.
// result N

====

target: N-terminal CRD of hGalectin-4 (Gal-4N) (Homo sapiens); construct: N-terminal CRD of hGalectin-4 (amino acids 1–150, including an additional C-terminus His-Tag); His-Tag (C, cleaved yes); made in house; host or cells: E. coli BL21 (pET29b); test: 1H Saturation Transfer Difference (STD) NMR epitope mapping; type: binding; settings: 1H-residue MetFuc
Let's look at some compounds and their measured STD-AF.

compound	tested_target	result_value
CC(=O)NC1C(OC2C(O)C(CO)OC(OC3C(CO)OC(O)C(O)C3O)C2OC2OC(C)C(O)C(O)C2O)OC(CO)C(O)C1O (stereo not drawn) [A type-6 (tetra)]	N-terminal CRD of hGalectin-4 (Gal-4N) (Homo sapiens)	0.0016
CC(=O)N[C@@H]1[C@@H](O[C@@H]2O[C@H](CO)[C@H](O)[C@H](O[C@H]3O[C@H](CO)[C@H](O)[C@H](O)[C@H]3O)[C@H]2O[C@@H]2O[C@@H](C)[C@@H](O)[C@@H](O)[C@@H]2O)[C@H](O)[C@@H](CO)O[C@H]1O [B type-1 (tetra)]	N-terminal CRD of hGalectin-4 (Gal-4N) (Homo sapiens)	0.0013
CC1OC(OC2C(OC3C(CO)OC(O)C(O)C3O)OC(CO)C(O)C2OC2OC(CO)C(O)C(O)C2O)C(O)C(O)C1O (stereo not drawn) [B type-6 (tetra)]	N-terminal CRD of hGalectin-4 (Gal-4N) (Homo sapiens)	0.0074
CC(=O)N[C@H]1[C@@H](O[C@H]2[C@@H](O)[C@@H](CO)O[C@@H](O[C@H]3[C@@H](O)[C@@H](CO)O[C@@H](O[C@@H]4[C@@H](O)[C@H](O)O[C@H](CO)[C@@H]4O)[C@@H]3NC(C)=O)[C@@H]2O[C@@H]2O[C@@H](C)[C@@H](O)[C@@H](O)[C@@H]2O)O[C@H](CO)[C@H](O)[C@@H]1O [A type-4 (penta)]	N-terminal CRD of hGalectin-4 (Gal-4N) (Homo sapiens)	0.0012
CC(=O)NC1C(OC2C(O)C(O)OC(CO)C2O)OC(CO)C(O)C1OC1OC(CO)C(O)C(OC2OC(CO)C(O)C(O)C2O)C1OC1OC(C)C(O)C(O)C1O (stereo not drawn) [B type-4 (penta)]	N-terminal CRD of hGalectin-4 (Gal-4N) (Homo sapiens)	0.0009

// query Query for N-terminal CRD of hGalectin-4 (Gal-4N) (Homo sapiens): what STD-AF does the record show for CC(=O)NC1C(O)OC(CO)C(OC2OC(CO)C(O)C(OC3OC(CO)C(O)C(O)C3O)C2OC2OC(C)C(O)C(O)C2O)C1O (stereo not drawn) [B type-2 (tetra)] ?
// result 0.0023
